For each of the compounds below, state its IC50.
System: Trypanosoma cruzi
testSummary: microbe, parasite or virus in culture
Type: functional, organism-based, Tulahuen LacZ, Clone C4
Numbers only here, please. The scale is nM.

Exercise: For the compound Cc1cc(C(=O)NC2CCN(C(c3ccc(C#N)cc3)c3cccnc3)CC2)n(C)n1 (stereo unspecified) , what IC50 is on record?
Key: 46.5

Exercise: For the compound OC(c1cccnc1)(c1cccc(F)c1)c1ccccc1Cl (stereo unspecified) , what IC50 is on record?
Key: 752

Exercise: For the compound Cc1ncsc1C(=O)N1CCC(NC(c2ccc(C(F)(F)F)cc2)c2cccnc2)CC1 (stereo unspecified) , what IC50 is on record?
Key: 58

Exercise: For the compound O=C(C1CC1)N1CCC(NC(c2ccc(Cl)cc2)c2cccnc2)CC1 (stereo unspecified) , what IC50 is on record?
Key: 110

Exercise: For the compound CS(=O)(=O)N1CCC(CNC(c2ccc(C(F)(F)F)cc2)c2cnccn2)CC1 (stereo unspecified) , what IC50 is on record?
Key: 360

Exercise: For the compound O=C(C1CC1)N1CCC(NC(c2ccc(C(F)(F)F)cc2)c2cnccn2)CC1 (stereo unspecified) , what IC50 is on record?
Key: 640

Exercise: For the compound O=C(C1CC1)N1CCN(C(c2cncnc2)c2ccc(Cl)cc2F)CC1 (stereo unspecified) , what IC50 is on record?
Key: 171

Exercise: For the compound N#Cc1ccc(C(O)(c2ccc(C(F)(F)F)cc2)c2cccnc2)cc1 (stereo unspecified) , what IC50 is on record?
Key: 18

Exercise: For the compound N#Cc1ccc(C(c2cccnc2)N2CCC(NC(=O)c3c(F)cccc3F)CC2)cc1 (stereo unspecified) , what IC50 is on record?
Key: 18.5

Exercise: For the compound N#Cc1cccc(N2CCC(NC(c3cccnc3)c3ccc(Cl)cc3F)CC2)c1 (stereo unspecified) , what IC50 is on record?
Key: 12.5

Exercise: For the compound OC(c1ccc(Cl)cc1)(c1cccnc1)c1ccc(Cl)cc1F (stereo unspecified) , what IC50 is on record?
Key: 19

Exercise: For the compound OC(c1ccc(Cl)cc1)(c1cccnc1)c1cccs1 (stereo unspecified) , what IC50 is on record?
Key: 17

Exercise: For the compound FC(F)(F)c1ccc(C(NC2CCN(c3nccs3)CC2)c2cccnc2)cc1 (stereo unspecified) , what IC50 is on record?
Key: 9.5

Exercise: For the compound O=C(C1CCCCC1)N1CCC(NC(c2ccc(C(F)(F)F)cc2)c2cnccn2)CC1 (stereo unspecified) , what IC50 is on record?
Key: 250

Exercise: For the compound N#Cc1ccc(C(c2cccnc2)N2CCC(NC(=O)c3ccccc3C(F)(F)F)CC2)cc1 (stereo unspecified) , what IC50 is on record?
Key: 4

###

For each of the compounds below, state its pIC50.
testSummary: DNDI: Cytotoxicity against L-6 rat myoblasts from skeletal muscle cells
conditions: L6 rat skeletal muscle myoblast cells, IC50
pIC50: −log10 of the molar value.

Exercise: For the compound OC(c1ccc(Cl)cc1)(c1cccnc1)c1ccsc1 (configuration not stated) , what pIC50 is on record?
Key: < 4.00

Exercise: For the compound N#Cc1ccc(C(c2cccnc2)N2CCC(NC(=O)c3ccc(F)cc3F)CC2)cc1 (configuration not stated) , what pIC50 is on record?
Key: < 4.00

Exercise: For the compound N#Cc1ccc(C(c2cccnc2)N2CCC(NC(=O)c3cccc(F)c3)CC2)cc1 (configuration not stated) , what pIC50 is on record?
Key: < 4.00

Exercise: For the compound O=C(NC1CCN(C(c2cncnc2)c2ccc(Cl)cc2F)CC1)c1cc(F)ccc1F (configuration not stated) , what pIC50 is on record?
Key: 4.13

Exercise: For the compound OC(c1ccc(Cl)cc1)(c1ccc(C(F)(F)F)cc1)c1nnc[nH]1 (configuration not stated) , what pIC50 is on record?
Key: < 4.00

Exercise: For the compound O=S(=O)(c1ccc(Cl)cc1)N1CCN(C(c2cncnc2)c2ccc(Cl)cc2F)CC1 (configuration not stated) , what pIC50 is on record?
Key: < 4.00

Exercise: For the compound O=S(=O)(Cc1ccccc1)NC1CCN(C(c2cnccn2)c2ccc(F)cc2F)CC1 (configuration not stated) , what pIC50 is on record?
Key: < 4.00

Exercise: For the compound O=S(=O)(c1ccc(C(F)(F)F)cc1)N1CCN(C(c2ccc(Cl)cc2)c2cccnc2)CC1 (configuration not stated) , what pIC50 is on record?
Key: 4.29

Exercise: For the compound CCN(CC)C(=O)NC1CCN(C(c2ccc(Cl)cc2)c2cncnc2)CC1 (configuration not stated) , what pIC50 is on record?
Key: < 4.00

Exercise: For the compound CC(C)(C)OC(=O)N1CC(NC(c2ccc(C(F)(F)F)cc2)c2cccnc2)C1 (configuration not stated) , what pIC50 is on record?
Key: 4.20

Exercise: For the compound O=C(Cc1ccccc1)N1CCC(NC(c2ccc(C(F)(F)F)cc2)c2cnccn2)CC1 (configuration not stated) , what pIC50 is on record?
Key: 4.15

Exercise: For the compound Cc1cc(C(=O)N2CCN(C(c3cccnc3)c3ccc(Cl)cc3F)CC2)no1 (configuration not stated) , what pIC50 is on record?
Key: 4.16

Exercise: For the compound N#Cc1ccc(C(c2cccnc2)N(C(=O)C2CC2)C2CCN(C(=O)C3CC3)CC2)cc1 (configuration not stated) , what pIC50 is on record?
Key: < 4.00

Exercise: For the compound CCC(=O)N1CCC(NC(c2ccc(C(F)(F)F)cc2)c2cnccn2)CC1 (configuration not stated) , what pIC50 is on record?
Key: < 4.00

Exercise: For the compound CC(C)S(=O)(=O)N1CCN(C(c2ccc(Cl)cc2)c2cncnc2)CC1 (configuration not stated) , what pIC50 is on record?
Key: < 4.00

Exercise: For the compound CCOC(=O)NC1CCN(C(c2ccc(Cl)cc2)c2cccnc2)CC1 (configuration not stated) , what pIC50 is on record?
Key: < 4.00

Exercise: For the compound CCC(=O)NC(c1ccc(C(F)(F)F)cc1)c1cnccn1 (configuration not stated) , what pIC50 is on record?
Key: < 4.00

Exercise: For the compound CCC(=O)N1CCC(NC(c2cnccn2)c2ccc(F)cc2F)CC1 (configuration not stated) , what pIC50 is on record?
Key: < 4.00

Exercise: For the compound OC(Cc1ccc(Cl)nc1)c1ccc(Cl)cc1 (configuration not stated) , what pIC50 is on record?
Key: < 4.00

Exercise: For the compound Cn1cc(C(=O)NC2CCN(C(c3ccc(C#N)cc3)c3cccnc3)CC2)cn1 (configuration not stated) , what pIC50 is on record?
Key: 4.26

Exercise: For the compound O=C(NC1CCN(C(c2cnccn2)c2ccc(F)cc2F)CC1)c1ccc(Cl)cc1 (configuration not stated) , what pIC50 is on record?
Key: 4.17

Exercise: For the compound O=C(c1ccc(F)c(C(O)(c2ccc(Cl)cc2)c2cccnc2)c1)N1CCOCC1 (configuration not stated) , what pIC50 is on record?
Key: < 4.00

Exercise: For the compound CC1(C)COC(c2cccc(C(O)(c3ccc(Cl)cc3)c3cncnc3)c2)=N1 (configuration not stated) , what pIC50 is on record?
Key: < 4.00

Exercise: For the compound Clc1ccc(C(c2cncnc2)c2ccccc2Cl)cc1 (configuration not stated) , what pIC50 is on record?
Key: < 4.00

Exercise: For the compound CS(=O)(=O)c1ccc(N2CCC(NC(c3cccnc3)c3cnn(CC(F)(F)F)c3)CC2)cc1 (configuration not stated) , what pIC50 is on record?
Key: < 4.00

Exercise: For the compound CCN(CC)C(=O)NC1CCN(C(c2ccc(Cl)cc2)c2cccnc2)CC1 (configuration not stated) , what pIC50 is on record?
Key: < 4.00

Exercise: For the compound Fc1cc(Cl)ccc1C(NC1CCN(c2nc3ccccc3s2)CC1)c1cccnc1 (configuration not stated) , what pIC50 is on record?
Key: < 4.00

Exercise: For the compound CS(=O)(=O)N1CCN(C(c2cncnc2)c2ccc(C(F)(F)F)cc2F)CC1 (configuration not stated) , what pIC50 is on record?
Key: < 4.00

Exercise: For the compound OC(c1ccc(Cl)cc1)(c1cccnc1)c1cccs1 (configuration not stated) , what pIC50 is on record?
Key: < 4.00

Exercise: For the compound CC(C)(C)NC(=O)N1CCC(NC(c2ccc(C#N)cc2)c2cccnc2)CC1 (configuration not stated) , what pIC50 is on record?
Key: < 4.00

Exercise: For the compound CC(C)Oc1ccc(C(NC2CCN(C(=O)Nc3ccccc3)CC2)c2cccnc2)cc1 (configuration not stated) , what pIC50 is on record?
Key: 4.14

Exercise: For the compound CC(=O)C(C)N1CCC(NC(c2ccc(Cl)cc2)c2cccnc2)CC1 (configuration not stated) , what pIC50 is on record?
Key: 4.06

Exercise: For the compound NC(=O)c1ccc(C(O)(c2ccc(Cl)cc2)c2cccnc2)c(F)c1 (configuration not stated) , what pIC50 is on record?
Key: < 4.00

Exercise: For the compound CC(C)CC(=O)N1CCC(NC(c2ccc(C(F)(F)F)cc2)c2cnccn2)CC1 (configuration not stated) , what pIC50 is on record?
Key: < 4.00

Exercise: For the compound O=C(NC1CCN(C(c2cncnc2)c2ccc(Cl)cc2F)CC1)c1ccccc1F (configuration not stated) , what pIC50 is on record?
Key: < 4.00

Exercise: For the compound Cc1cc(C(=O)NC2CCN(C(c3ccc(C#N)cc3)c3cccnc3)CC2)n(C)n1 (configuration not stated) , what pIC50 is on record?
Key: < 4.00

Exercise: For the compound O=C(c1ccccc1)N1CCC(NC(c2ccc(C(F)(F)F)cc2)c2cnccn2)CC1 (configuration not stated) , what pIC50 is on record?
Key: < 4.00

Exercise: For the compound Cc1nocc1C(=O)NC1CCN(C(c2ccc(C(F)(F)F)cc2)c2cccnc2)CC1 (configuration not stated) , what pIC50 is on record?
Key: 4.19

Exercise: For the compound [O-][n+]1cncc(C(O)(c2ccc(Cl)cc2)c2ccccc2Cl)c1 (configuration not stated) , what pIC50 is on record?
Key: < 4.00

Exercise: For the compound CC(C)(C)OC(=O)N1CCN(C(c2ccc(Cl)cc2)c2cncnc2)CC1 (configuration not stated) , what pIC50 is on record?
Key: < 4.00

Exercise: For the compound OC(c1ccc(Cl)cc1)(c1cccnc1)c1ccc(Cl)s1 (configuration not stated) , what pIC50 is on record?
Key: 4.30

Exercise: For the compound Fc1ccc(OC2CCN(C(c3ccc(C(F)(F)F)cc3)c3cccnc3)CC2)cc1 (configuration not stated) , what pIC50 is on record?
Key: 4.62
